- Test system: Caco-2
- testName: cell viability relative to DMSO; higher = less toxic
- measurementConditions: 72 h; 100 nM
recordedEndpoint: cell viability (%)
Respond numerically; units are % and should not be typed.

A selection of reference data follows.
Enquiry: Name the recorded cell viability of the compound listed here: COc1cc2ncnc(Nc3ccc(O)c(Br)c3)c2cc1OC
Return: 89.8

Enquiry: Retrieve cell viability measured for CC1(C)[C@H]2CC[C@]1(C)[C@@H](O)[C@H]2O [cis-exo-camphanediol-2,3] and print it.
Return: 100

Enquiry: Determine from records and report cell viability for COc1cc(-c2ncn(/C=C\C(=O)OC(C)C)n2)cc(C(F)(F)F)c1
Return: 92.2

New cases:
Enquiry: Give recorded cell viability. O=C(NOCCO)c1cc(CN2OCCCC2=O)c(F)c(F)c1Nc1ccc(I)cc1F
Return: 67.9

Enquiry: Name the recorded cell viability of the compound listed here: Cn1ncc(Cl)c1-c1cc(C(=O)N[C@H](CN)Cc2cccc(F)c2)sc1Cl
Return: 95.3

Enquiry: Please supply the value of reported cell viability for the item CN1CCN(C(=O)c2nc3ccc(Cl)cc3[nH]2)CC1
Return: 96.5

Enquiry: Indicate its recorded cell viability; the compound in question is COC(=O)c1ccccc1NC(=O)c1ccc(F)cc1 [EXO-1]
Return: 100

Enquiry: Given the compound CN1C2C=C(c3sccc3Br)CC1CC2 (stereo unspecified) , write its reported cell viability.
Return: 92.4

Enquiry: Please list cell viability recorded for the compound CC(C)NNC(=O)c1ccncc1
Return: 98.9

Enquiry: Tell us which cell viability value is on record for CNC(C)(C)Cc1ccccc1
Return: 104

Enquiry: Quick one: give measured cell viability for COc1ccc(/C=C/CCCCOc2ccc(C(=O)c3cccc(C(=O)O)c3)cc2CCC(=O)O)cc1
Return: 102

====

- System: Caco-2
- testName: cell viability relative to DMSO; higher = less toxic
- measurementConditions: 72 h; 100 nM
# cell viability annotations
Give your result in % as a bare value.

Here's what some known entries look like.
Enquiry: Return the recorded cell viability value; entry: CCOC(=O)c1ccc(NC2CCCCC2)c(N)c1 [ferrostatin-1]
Return: 102

Enquiry: Quickly give me recorded cell viability for Oc1nc(O)c2nc(O)[nH]c2n1 [uric-acid]
Return: 92.6

Enquiry: Input Clc1ccc(COC(Cn2ccnc2)c2ccc(Cl)cc2Cl)c(Cl)c1 (centres undefined) [miconazole] , output reported cell viability.
Return: 96.2

Enquiry: Recall and state the measured cell viability for Nc1ccc(O)c(C(=O)O)c1 [mesalazine] .
Return: 109

Enquiry: Identify measured cell viability corresponding to O=C(O)c1cccc(-c2noc(-c3ccccc3F)n2)c1 [ataluren]
Return: 98.6

Enquiry: Write down cell viability measured for item COC(=O)N[C@H](C(=O)N1CCC[C@H]1c1nc(-c2ccc3c(c2)O[C@@H](c2ccccc2)n2c-3cc3cc(-c4c[nH]c([C@@H]5CCCN5C(=O)[C@@H](NC(=O)OC)C(C)C)n4)ccc32)c[nH]1)C(C)C [elbasvir]
Return: 93.1

Enquiry: Return cell viability (reported value) for this molecule: Nc1nc(O)c2ncn(CCC(CO)CO)c2n1 [penciclovir]
Return: 102

Enquiry: Provide cell viability value for the following molecule: Cc1ccccc1/N=N/c1ccc(NC(=O)c2ccnn2C)c(C)c1
Return: 97.9

More entries:
Enquiry: Entry C[C@@H]1CC(=O)c2c(ccc3c2C(=O)c2cccc(O)c2C3=O)C1 [ochromycinone] needs its cell viability filled in; supply it.
Return: 99.6

Measured values drawn from the supplement of paper PMC13380429 for this set.
